Sourced from PubChem BioAssay (NCI)

System: T-47D breast
Assay Name: NCI-60 one-dose screen, 48 h (100 = growth as untreated, 0 = no growth, -100 = all killed)
Cond: 10 µM unless noted
The panel holds about 83,000 compounds, 20% with a hit somewhere; the sample as a whole holds those more often. Activity calls are given as the source filed them. Rule for the calls: active = growth percent below 10; inactive = the rest.
Assay Readout: growth

Exam item: Name the recorded growth for C#C[C@]1(O)CC[C@H]2[C@@H]3CC=C4c5sc(Nc6nc(C)cc(OC)n6)nc5CC[C@]4(C)[C@H]3CC[C@@]21C .
Marked response: 59% (inactive)

Exam item: Name the recorded growth for COc1cc(O)c2c(c1)[C@H]1O[C@@H]1C[C@H](O)[C@H](O)C(=O)/C=C\C[C@H](C)OC2=O .
Marked response: 30.1% (inactive)

Exam item: Name the recorded growth for C/C(=N/Nc1nc(N/N=C(/C)c2ccc([N+](=O)[O-])cc2)nc(N2CCOCC2)n1)c1ccc([N+](=O)[O-])cc1 .
Marked response: 54.9% (inactive)

Exam item: Name the recorded growth for CCN1C(=O)N(CC)C2SC(N/N=C/c3cccs3)=NC21 (centres undefined) .
Marked response: 68.8% (inactive)
